Numbers sourced from patent US12679827B2.

# Tested on: MIA PaCa-2
# measurement_notes: Proliferation inhibition of various cancer cells (PrestoBlue), MIA PaCa-2
# Type: cell-based
# measurement_parameters: Homo sapiens, Pancreatic cancer, 72 hours
pIC50: −log10 of the molar value.
Recorded measurements of pIC50, one per entry

CCN1CCN(c2cc(Nc3cc(C)[nH]n3)nc(NC3CCN(C(=O)c4cccc(Cl)c4F)CC3)n2)CC1 [Compound 86] = > 6.00

Lab book: pIC50 of CCN1CCN(c2cc(Nc3cc(C)[nH]n3)nc(N[C@H]3CCN(C(=O)c4ccc(Cl)cc4F)C3)n2)CC1 [Compound 41] noted as > 6.00

====

# Tested on: SNU-398
# measurement_notes: Proliferation inhibition of various cancer cells (PrestoBlue), SNU-398
# Type: cell-based
# measurement_parameters: Homo sapiens, Liver cancer, 72 hours
pIC50: −log10 of the molar value.
The molecules listed here are annotated with their pIC50.

CCN1CCN(c2cc(Nc3cc(C)[nH]n3)nc(N[C@H]3CCN(C(=O)c4ccc(Cl)cc4F)C3)n2)CC1 = > 6.70

For the next question, use this molecule.
SNU-398 pIC50 of CCN1CCN(c2cc(Nc3cc(C)[nH]n3)nc(NC3CCN(C(=O)c4cccc(Cl)c4F)CC3)n2)CC1 is > 6.70

====

Reported IC50 values follow for various molecules
# System: NCI-H82
# measurement_notes: Small-cell-lung cancer cell proliferation inhibition assay (PrestoBlue), NCI-H82
# Assay type: cell-based
# measurement_parameters: Homo sapiens, cMYC amplified SCLC cells, 72 hours

The cases that follow already have their IC50 on record.
Cc1cc(Nc2cc(N(C)CCN(C)C)nc(N[C@H]3CCN(C(=O)c4cccc(Cl)c4F)C3)n2)n[nH]1 [Compound 27] = < 1000 nM
CCN1CCN(c2cc(Nc3cc(C)nn3C(=O)OCCOC)nc(N[C@H]3CCN(C(=O)c4ccc(Cl)cc4F)C3)n2)CC1 [Compound 82] = < 1000 nM
COCCN(C)c1cc(Nc2cc(C)[nH]n2)nc(NC2CCN(C(=O)c3cccc(Cl)c3F)CC2)n1 [Compound 98] = < 1000 nM

Considering Cc1cc(Nc2cc(N(C)CCN(C)C)nc(NC3CCN(C(=O)c4cccc(Cl)c4F)CC3)n2)n[nH]1 [Compound 95] , its IC50 with NCI-H82 was recorded as < 1000 nM

IC50 of COC[C@@H]1CCCN1c1cc(Nc2cc(C)[nH]n2)nc(NC2CCN(C(=O)c3cccc(Cl)c3F)CC2)n1 [Compound 104] , assay on NCI-H82, is < 1000 nM
